Reported composite z-score values follow for various compounds
experimental_system: Calmodulin-1 (Homo sapiens)
assay_protocol: CALM1 binders on microarrays, EGTA buffer, profiling panel, biochemical, small-molecule microarray, Cy5-labelled CALM1 (AID 1111);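 also: labelled calmodulin applied in Tris saline Tween buffer holding calcium plus EGTA and DTT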
condition: Cy5-CALM1 binding fluorescence, higher = more signal

Field: composite z-score (Calmodulin-1 (Homo sapiens)). Entry: COCCOC(=O)N1C(=O)[C@@]2(c3cc(C#CCNC(N)=O)ccc31)[C@H](c1ccc(O)cc1)N1[C@H](c3ccccc3)[C@H](c3ccccc3)OC(=O)[C@H]1[C@@H]2C(=O)NC[C@H](O)c1ccccc1
0.288

Give composite z-score (Calmodulin-1 (Homo sapiens)) of the following compound: COc1ccccc1CN1C(=O)c2ccccc2[C@@H](C(=O)NCCN2CCOCC2)[C@@H]1c1ccc(CO)cc1
-0.652

Recorded composite z-score for COc1ccc(CCN2C(=O)[C@@]3(Cc4ccccc42)c2ccccc2C(=O)N(Cc2ccccc2Cl)[C@H]3c2ccc(CO)cc2)cc1 with Calmodulin-1 (Homo sapiens), please?
0.102

Missing value: composite z-score, Calmodulin-1 (Homo sapiens), entry CC(=O)C1=CCC(c2ccccc2)N(S(=O)(=O)c2ccc(C)cc2)C1 (configuration not stated) . Fill in?
-0.105

Reported composite z-score for Calmodulin-1 (Homo sapiens), given CS(=O)(=O)CCOC(=O)C1=CC(c2ccc(CO)cc2)=CC(C2CC2)N(Cc2cc3c(cc2Br)OCO3)C=C1C(=O)OCCS(C)(=O)=O (configuration not stated) ?
1.38

Fill in the recorded composite z-score for this compound, with Calmodulin-1 (Homo sapiens) as test system: CC(=O)NCCCC[C@@H]1NC(=O)[C@H]2C[C@@H](C(=O)NCCCCCC[N+](C)(C)C)[C@@H](c3cccc(OCCO)c3)N2C1=O
0.0227

Hello, I am looking for reported composite z-score with Calmodulin-1 (Homo sapiens) for COc1ccc(CCNC(=O)[C@@]2(c3ccc([N+](=O)[O-])cc3)CC(=O)N(CC34CC5CC(CC(C5)C3)C4)[C@@H]2c2ccc(CO)cc2)cc1 . Could you help?
0.581

---

assay_protocol: small-molecule microarray binders of probe aShh, primary screen, biochemical, biotinylated probe, 635/667 nm fluorescence (AID 1114);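 also: probe is biotin-labelled aShh protein from a stem cell growth factor screen; measures binding of labelled protein to compounds printed on the slide; score merges feature fluorescence at 667 nm with signal-to-noise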
condition: higher = more signal
reported_endpoint: composite z-score
Provide a numeric answer; units are not to be included.

Sample answers from the record:
>  <molecule>
CC(C)CNC(=O)[C@@]1(c2ccc([N+](=O)[O-])cc2)CC(=O)N(CC23CC4CC(CC(C4)C2)C3)[C@@H]1c1ccc(CO)cc1I

>  <composite z-score>
-0.0685

$$$$
>  <molecule>
Cc1cc(C)c(C(O)C2C=CC3C(=O)N(c4ccccc4)C(=O)C3N2Nc2ccc(C#N)cc2)c(C)c1 (centres undefined)

>  <composite z-score>
-0.0793

$$$$
>  <molecule>
COC(=O)C[C@@H]1C[C@H](C)[C@]2(O1)C(=O)N(Cc1ccccc1)c1ccc(NC(C)=O)cc12

>  <composite z-score>
-0.543

$$$$
>  <molecule>
CN1CCC(CCCO)=CC1c1ccc(CN2CCCC2)cc1 (centres undefined)

>  <composite z-score>
0.441

$$$$
>  <molecule>
COCCOC(=O)N1C(=O)[C@@]2(c3ccccc31)[C@H](c1ccc(O)cc1)N1[C@H](c3ccccc3)[C@H](c3ccccc3)OC(=O)[C@H]1[C@@H]2C(=O)N1CCc2cc(OC)c(OC)cc2C1

>  <composite z-score>
-0.214

$$$$

May I ask what composite z-score has been recorded for COC(=O)c1ccc(C(O)C2C=CC3C(=O)N(c4ccccc4)C(=O)C3N2Nc2ccc(C#N)cc2)o1 (centres undefined) ?
0.582

# query: composite z-score of entry CCOC(=O)C[C@H]1[C@H](OC(=O)Cc2ccc3c(c2)OCO3)[C@@H](NC(=O)C2CCCCC2)c2cc(OCCCO)ccc2N1C(=O)Cc1ccc(OC)cc1
-0.0626

Which measured composite z-score value corresponds to CC(=O)NCCCC[C@@H]1NC(=O)[C@@H]2C[C@H](C(=O)NCCCCN(C)C)[C@H](c3ccc(O)cc3)N2C1=O ?
-0.214

Report composite z-score for NC(=O)NCC#Cc1ccc2c(c1)[C@]1(C(=O)N2)[C@H](C(=O)N2CCCCCCC2)[C@H]2C(=O)O[C@H](c3ccccc3)[C@H](c3ccccc3)N2[C@@H]1c1ccc(OCCO)cc1 please.
2.19

Using the record for CN(C)C(=O)[C@]1(CCC(=O)OC(C)(C)C)N=C(c2ccc(OCCCO)cc2)O[C@@H]1c1ccccc1N=[N+]=[N-] , report its composite z-score.
0.14

Recorded composite z-score of CO[C@H]1O[C@H](CO)[C@@H](OC(=O)Nc2ccc3c(c2)OCO3)[C@H](OC(=O)Nc2ccccc2)[C@H]1OC(=O)Nc1ccccc1 , please.
0.275

What value of composite z-score has been recorded for this entry: [N-]=[N+]=NCc1ccccc1[C@@H]1OC(c2ccc(OCCCO)cc2)=N[C@]1(Cc1ccccc1)C(=O)N1CCCCC1
0.369

// returns reported composite z-score for input COC(=O)c1ccc(C(O)C2C=CC3C(=O)N(C)C(=O)C3N2NC(=O)OC(C)(C)C)o1 (centres undefined)
-0.0904

Which value of composite z-score has been reported for COCCOC(=O)N1C(=O)[C@@]2(c3cc(C#CCC(C(=O)OC)C(=O)OC)ccc31)[C@H](c1ccccc1OCCO)N1[C@H](c3ccccc3)[C@H](c3ccccc3)OC(=O)[C@H]1[C@@H]2C(N)=O in the records?
-0.0055
